Tested on: BV-2
procedure_details: Anti-inflammatory activity against LPS-induced mouse BV-2 cells assessed as inhibition rate of LPS-induced […] production at 80 uM pretreated for 1 hr followed by challenged with LPS and measured after 24 hrs incubation by Griess assay
Assay type: functional
experimental_context: time 25 hrs
Measured inhibition at 80 µM of individual entries
property_name: inhibition at 80 µM (%)

compound	experimental_target	experimental_result
CC(C)=CC(=O)OC(C)c1ccc(-c2ccccc2)cc1 (configuration not stated)	BV-2	44.5
CC(C)=CC(=O)CC(c1ccc(C)cc1)C(C)C (configuration not stated)	BV-2	71
CC(C)=CC(=O)CC(c1ccc(C)cc1)c1ccc(F)cc1 (configuration not stated)	BV-2	8.15
CC(C)=CC(=O)NC(c1ccccc1)c1ccc(C)cc1 (configuration not stated)	BV-2	71
CCCc1ccc(CNC(=O)C=C(C)C)cc1	BV-2	59.8
CC(C)=CC(=O)OC(C)c1ccccc1 (configuration not stated)	BV-2	24.9
CC(C)=CC(=O)NC(C)c1ccc2ccccc2c1 (configuration not stated)	BV-2	60.1
CC(C)=CC(=O)NC(C)c1ccc(Cl)cc1 (configuration not stated)	BV-2	38
CC(C)=CC(=O)NC(C)c1ccc(C(F)(F)F)cc1 (configuration not stated)	BV-2	28
CC(C)=CC(=O)OC(C)c1ccc(Cl)cc1 (configuration not stated)	BV-2	15.8
CC(C)=CC(=O)CC(c1ccc(-c2ccccc2)cc1)C(C)C (configuration not stated)	BV-2	69.7
CC(C)=CC(=O)CC(C)c1ccc(-c2ccccc2)cc1 (configuration not stated)	BV-2	18.9
